Target: FGR (human)
Assay: KINOMEscan competition binding
Conditions: compound 10.0 µM

chem-smiles: CCC(=O)N1CCN(c2ccc(-n3c(=O)ccc4cnc5ccc(-c6cnc7ccccc7c6)cc5c43)cc2C(F)(F)F)CC1
kinase still bound, per cent of control (%): 78
--
chem-smiles: CC(C)n1nc(-c2cc3cc(O)ccc3[nH]2)c2c(N)ncnc21
kinase still bound, per cent of control (%): 5.6
--
chem-smiles: COc1ccc(-c2ccc3c(N4CCOCC4)nc(N4C[C@@H](C)O[C@@H](C)C4)nc3n2)cc1CO
kinase still bound, per cent of control (%): 100
--
chem-smiles: COC(=O)Nc1ccc(-c2nc(N3CCOCC3)c3cnn(C4CCN(C(=O)OC)CC4)c3n2)cc1
kinase still bound, per cent of control (%): 96
